molecular target: human ALK2 R206H (Homo sapiens, UniProt Q04771, R206H); construct: expressed in transfected cells; host or cells: HEK293 (ATCC CRL1573), lentivirus transduction, blasticidin selection; assay: Cell-based ALK2-R206H cell activity assay (Smad1-Ser463/Ser465 phosphorylation by AlphaLISA in HEK293-ALK2-R206H cells); conditions: read-out: Cell Line (Cell Assay IC50)
pIC50: −log10 of the molar value.
QUANTITY MEASURED: pIC50

O=C(C1CC1)N1CCN(c2ccnn3cc(-c4ccc(C5CCNCC5F)cc4)cc23)CC1 (centres unmarked) [Compound 174] ... 6.30 to 7.00
O=C([C@H]1C[C@@H]1F)N1CCN(c2ccnn3cc(-c4ccc(N5CCNCC5)cc4)cc23)CC1 [Compound 184] ... > 7.00
COC[C@@H](C)N1CCC(OC)(c2ccc(-c3cc4c(N5CCN(C(=O)[C@H]6C[C@H](C#N)C6)CC5)ccnn4c3)cc2)CC1 [Compound 746] ... > 7.00
CCN1CC2(C1)CN(c1ccc(-c3cc4c(N5CCN(C(=O)[C@@H]6C[C@H]6F)CC5)ccnn4c3)cc1)C2 [Compound 332] ... > 7.00

# context switch: different compound, same pIC50
Q) Which measured pIC50 value corresponds to CCO[C@@]1(c2ccc(-c3cc4c(N5CCN(C(=O)NC(C)C)CC5)ccnn4c3)cc2)CCN(C(C)C)C1 [Compound 677] ?
A) > 7.00

* * *

Target: ALK2 R206H (GST-tagged mutant ALK2) (Homo sapiens, UniProt Q04771, R206H)
Construct: purchased Carna Bioscience or ThermoFisher 09-148 or PV6232
Sequence (Q04771 21-509 R206H): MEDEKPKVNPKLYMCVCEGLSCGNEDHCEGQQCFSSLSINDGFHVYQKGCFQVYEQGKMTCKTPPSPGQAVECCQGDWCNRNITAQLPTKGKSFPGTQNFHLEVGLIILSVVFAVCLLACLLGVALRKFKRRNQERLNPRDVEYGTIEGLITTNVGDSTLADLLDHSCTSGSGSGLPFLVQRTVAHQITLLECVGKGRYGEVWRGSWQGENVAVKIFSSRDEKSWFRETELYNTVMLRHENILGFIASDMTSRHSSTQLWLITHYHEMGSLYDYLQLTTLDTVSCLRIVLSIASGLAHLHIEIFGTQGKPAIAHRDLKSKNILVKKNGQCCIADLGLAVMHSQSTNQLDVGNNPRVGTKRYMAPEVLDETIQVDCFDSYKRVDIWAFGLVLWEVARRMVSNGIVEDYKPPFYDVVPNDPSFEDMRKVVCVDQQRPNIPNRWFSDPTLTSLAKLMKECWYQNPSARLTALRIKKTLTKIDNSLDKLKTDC
Experiment: ALK binding assay (LANTHASCREEN TR-FRET competitive binding, displacement of Kinase Tracer 178)
Settings: ALK2 R206H, LANTHASCREEN TR-FRET competitive binding; read-out: Binding Assay (IC50)
pIC50: −log10 of the molar value.
QUANTITY MEASURED: pIC50

Recorded results for 5 compounds are shown here.
COC1(c2ccc(-c3cc4c(N5CCN(C(=O)[C@H]6C[C@H](C#N)C6)CC5)ccnn4c3)cc2)CCN([C@H](C)CO)CC1 [Compound 739] ... > 8.00
CCNC(=O)N1CCN(c2ccnn3cc(-c4ccc([C@]5(OC)CCCN(C(C)C)C5)c(F)c4)cc23)CC1 [Compound 699] ... > 8.00
NC1CCN(c2ccc(-c3cc4c(N5CCN(C(=O)C6CC6)CC5)ccnn4c3)cc2)CC1 [Compound 158] ... > 8.00
CCOC1(c2ccc(-c3cc4c(N5CCN(C(=O)OC6COC6)CC5)ccnn4c3)nc2)CCNCC1 [Compound 647] ... > 8.00
CC(C)N1CCC[C@@H](c2ccc(-c3cc4c(N5CCN(C(=O)[C@H]6CC[C@H](C#N)CC6)CC5)ccnn4c3)cc2)C1 [Compound 434] ... > 8.00

Please examine the following record next.
Q) Notebook entry, ALK2 R206H (GST-tagged mutant ALK2) (Homo sapiens, UniProt Q04771, R206H) assay: pIC50 of CCOC(=O)N1CCN(c2ccnn3cc(-c4ccc([C@H]5CCN(C(C)C)C5)cc4)cc23)CC1 [Compound 231] = ?
A) > 8.00
